- MEASURED ON: PI3Kα (p110/p85) kinase (wild type, "WT") (Homo sapiens)
- ASSAY COMMENT: PI3Kα (p110/p85) kinase ADP-Glo Assay
- PARTICULARS: 25 uM ATP
With a cut-off of 10 µM, any IC50 strictly below it is called Fulfilled; any IC50 meeting it or above is called Not fulfilled.

> print(dat)
                                   molecule    group.label
1  Cc1cc(C(C)Nc2c(C(=O)O)nn3c2CCC3)c2cc(-c3ccccc3)n(C)c(=O)c2c1 (stereo not shown)  Not fulfilled
2  Cc1cc([C@H](C)Nc2ccccc2C(=O)O)c2cc(-c3ccc(F)cc3)n(CC#N)c(=O)c2c1  Not fulfilled
3  Cc1cc(C(C)Nc2ccccc2C(=O)O)c2cc(-c3cnn(-c4cccc(C#N)c4)c3)n(C)c(=O)c2c1 (stereo not shown)      Fulfilled
4  Cc1cc([C@H](C)Nc2ccccc2C(=O)O)c2cc(-c3ccc(C(C)(C)O)nc3)n(C)c(=O)c2c1  Not fulfilled
5  Cc1cc(C(C)Nc2ccccc2C(=O)O)c2cc(C#Cc3cnn(-c4ccccc4)c3)n(C)c(=O)c2c1 (stereo not shown)  Not fulfilled
6  Cc1cc(C(C)Nc2ccccc2C(=O)O)c2cc(-c3cccc(C(F)(F)F)c3)n(C)c(=O)c2c1 (stereo not shown)  Not fulfilled

// switching to the query molecule
Determine whether this molecule shows IC50 lower than 10 µM (ties excluded): Cc1cc(C(C)Nc2ccccc2C(=O)O)c2cc(-c3ccc4nn(C)cc4c3)n(C)c(=O)c2c1 (stereo not shown)
Fulfilled

* * *

- MEASURED ON: PI3Kα (p110[H1047R]/p85) kinase (Homo sapiens, UniProt P42336, H1047R)
- Sequence (P42336 whole entry H1047R, one chain of several): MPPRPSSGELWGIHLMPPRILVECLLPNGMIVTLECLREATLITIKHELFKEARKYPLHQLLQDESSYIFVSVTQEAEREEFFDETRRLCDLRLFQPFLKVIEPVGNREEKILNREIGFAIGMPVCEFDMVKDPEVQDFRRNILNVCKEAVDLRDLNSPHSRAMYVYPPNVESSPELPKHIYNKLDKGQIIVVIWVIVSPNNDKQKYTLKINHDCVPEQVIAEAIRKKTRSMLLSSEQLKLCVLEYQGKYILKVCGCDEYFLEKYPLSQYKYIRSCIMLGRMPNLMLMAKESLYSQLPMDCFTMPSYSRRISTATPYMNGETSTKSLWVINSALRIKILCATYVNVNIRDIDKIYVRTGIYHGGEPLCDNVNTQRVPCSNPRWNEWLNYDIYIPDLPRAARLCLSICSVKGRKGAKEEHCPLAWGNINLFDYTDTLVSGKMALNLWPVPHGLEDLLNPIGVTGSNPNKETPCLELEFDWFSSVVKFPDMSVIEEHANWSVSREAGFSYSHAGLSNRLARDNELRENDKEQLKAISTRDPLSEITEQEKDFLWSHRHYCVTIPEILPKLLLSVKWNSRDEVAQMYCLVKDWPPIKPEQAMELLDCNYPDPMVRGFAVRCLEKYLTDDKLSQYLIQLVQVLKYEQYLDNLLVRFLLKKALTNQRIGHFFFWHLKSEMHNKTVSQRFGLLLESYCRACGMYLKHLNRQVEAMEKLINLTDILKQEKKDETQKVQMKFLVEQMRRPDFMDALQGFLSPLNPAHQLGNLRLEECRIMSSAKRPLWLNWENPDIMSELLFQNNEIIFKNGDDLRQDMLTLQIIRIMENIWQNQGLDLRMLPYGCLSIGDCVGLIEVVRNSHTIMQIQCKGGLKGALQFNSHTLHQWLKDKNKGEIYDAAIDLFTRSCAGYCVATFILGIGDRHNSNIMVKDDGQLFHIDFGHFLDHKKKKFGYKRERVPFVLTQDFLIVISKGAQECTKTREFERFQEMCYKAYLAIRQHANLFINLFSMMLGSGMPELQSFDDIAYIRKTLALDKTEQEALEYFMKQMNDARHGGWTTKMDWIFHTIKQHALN
- ASSAY COMMENT: PI3Kα (p110[H1047R]/p85) kinase ADP-Glo Assay
- Assay type: biochemical
- PARTICULARS: ADP-Glo Assay IC50 ratio, 25 uM ATP
Below, each entry is listed alongside its reported selectivity: WT/H1047R.
Respond with the number and no other words.

Before answering, review these 4 worked examples.
> print(dat)
                                   compound  recorded.measurement
1  Cc1cc(C(C)Nc2ccccc2C(=O)O)c2cc(-c3ccc(F)cc3)n(CC#N)c(=O)c2c1 (stereo not drawn)                  66.8
2  Cc1cc(C(C)Nc2ccccc2C(=O)O)c2cc(-c3ccc4nn(C)cc4n3)n(C)c(=O)c2c1 (stereo not drawn)                  11.5
3  Cc1cc(C(C)Nc2ccccc2C(=O)O)c2cc(-c3ccc(C(F)(F)F)cc3)n(C)c(=O)c2c1 (stereo not drawn)                  20.8
4  Cc1cc(C(C)Nc2ccccc2C(=O)O)c2cc(-c3nc4ccccc4s3)n(C)c(=O)c2c1 (stereo not drawn)                  30.5

Entry Cc1cc(C(C)Nc2ccccc2C(=O)O)c2cc(-c3ccc(C(C)(C)O)nc3)n(C)c(=O)c2c1 (stereo not drawn) , tested on PI3Kα (p110[H1047R]/p85) kinase (Homo sapiens, UniProt P42336, H1047R), has a reported selectivity: WT/H1047R of 35.9

Observed selectivity: WT/H1047R on PI3Kα (p110[H1047R]/p85) kinase (Homo sapiens, UniProt P42336, H1047R), entry CCn1c(-c2ccc(F)cc2)cc2c(C(C)Nc3ccc(Cl)nc3C(=O)O)cc(C)cc2c1=O (stereo not drawn) , equals 17.6

* * *

- MEASURED ON: PI3Kα (p110[H1047R]/p85) kinase (Homo sapiens, UniProt P42336, H1047R)
- ASSAY COMMENT: PI3Kα (p110[H1047R]/p85) kinase ADP-Glo Assay
- PARTICULARS: 25 uM ATP
pIC50: recorded values
// field semantics: pIC50 = negative decimal log of concentration (mol/L)

Examples with answers:
> print(dat)
                                   compound  assay.endpoint  recorded.measurement
1  Cc1cc(C(C)Nc2ccccc2C(=O)O)c2cc(C(=O)Nc3ccccc3)n(C)c(=O)c2c1 (stereo not shown) [Example 42]           pIC50                  6.01
2  Cc1cc(C(C)Nc2ccccc2C(=O)O)c2cc(-c3ccccc3C#N)n(C)c(=O)c2c1 (stereo not shown) [Example 32]           pIC50                  6.48
3  Cc1cc(C(C)Nc2ccccc2C(=O)O)c2cc(-c3cncnc3)n(C)c(=O)c2c1 (stereo not shown) [Example 61]           pIC50                  6.10

# input for lookup
The reported value for Cc1cc(C(C)Nc2ccccc2C(=O)O)c2cc(C3=Cc4ccccc4CC3)n(C)c(=O)c2c1 (stereo not shown) [Example 45] in terms of pIC50 is 6.56

* * *

- MEASURED ON: PI3Kα (p110/p85) kinase (wild type, "WT") (Homo sapiens, UniProt P42336)
- Sequence (P42336 whole entry): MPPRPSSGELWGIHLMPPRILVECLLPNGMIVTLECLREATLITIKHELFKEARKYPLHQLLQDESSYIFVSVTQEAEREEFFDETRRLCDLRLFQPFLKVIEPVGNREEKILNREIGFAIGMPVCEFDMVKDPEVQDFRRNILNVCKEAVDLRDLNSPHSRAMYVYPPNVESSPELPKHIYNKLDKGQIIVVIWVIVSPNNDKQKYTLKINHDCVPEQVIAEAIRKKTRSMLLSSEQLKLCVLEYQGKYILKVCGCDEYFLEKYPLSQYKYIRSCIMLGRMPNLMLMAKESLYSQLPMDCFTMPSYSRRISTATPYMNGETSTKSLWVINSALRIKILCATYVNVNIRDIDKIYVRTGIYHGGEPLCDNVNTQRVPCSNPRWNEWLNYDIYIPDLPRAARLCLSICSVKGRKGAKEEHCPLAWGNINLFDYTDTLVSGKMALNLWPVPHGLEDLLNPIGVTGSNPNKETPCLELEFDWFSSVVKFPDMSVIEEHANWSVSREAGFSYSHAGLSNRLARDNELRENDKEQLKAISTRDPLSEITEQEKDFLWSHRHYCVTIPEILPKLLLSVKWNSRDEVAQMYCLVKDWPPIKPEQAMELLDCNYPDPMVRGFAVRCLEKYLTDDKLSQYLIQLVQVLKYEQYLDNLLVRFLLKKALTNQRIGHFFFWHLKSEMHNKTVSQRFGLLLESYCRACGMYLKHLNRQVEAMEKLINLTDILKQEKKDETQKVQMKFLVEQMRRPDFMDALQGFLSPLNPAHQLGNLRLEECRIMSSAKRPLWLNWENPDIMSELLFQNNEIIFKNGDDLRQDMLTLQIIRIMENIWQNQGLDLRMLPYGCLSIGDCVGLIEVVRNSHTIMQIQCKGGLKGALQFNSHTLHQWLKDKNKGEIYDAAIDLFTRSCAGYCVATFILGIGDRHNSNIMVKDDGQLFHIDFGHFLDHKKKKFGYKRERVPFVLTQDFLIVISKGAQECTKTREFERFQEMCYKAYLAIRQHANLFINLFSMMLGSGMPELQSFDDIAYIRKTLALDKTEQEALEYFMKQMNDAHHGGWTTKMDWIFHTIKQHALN
- Sequence (P27986 whole entry partner): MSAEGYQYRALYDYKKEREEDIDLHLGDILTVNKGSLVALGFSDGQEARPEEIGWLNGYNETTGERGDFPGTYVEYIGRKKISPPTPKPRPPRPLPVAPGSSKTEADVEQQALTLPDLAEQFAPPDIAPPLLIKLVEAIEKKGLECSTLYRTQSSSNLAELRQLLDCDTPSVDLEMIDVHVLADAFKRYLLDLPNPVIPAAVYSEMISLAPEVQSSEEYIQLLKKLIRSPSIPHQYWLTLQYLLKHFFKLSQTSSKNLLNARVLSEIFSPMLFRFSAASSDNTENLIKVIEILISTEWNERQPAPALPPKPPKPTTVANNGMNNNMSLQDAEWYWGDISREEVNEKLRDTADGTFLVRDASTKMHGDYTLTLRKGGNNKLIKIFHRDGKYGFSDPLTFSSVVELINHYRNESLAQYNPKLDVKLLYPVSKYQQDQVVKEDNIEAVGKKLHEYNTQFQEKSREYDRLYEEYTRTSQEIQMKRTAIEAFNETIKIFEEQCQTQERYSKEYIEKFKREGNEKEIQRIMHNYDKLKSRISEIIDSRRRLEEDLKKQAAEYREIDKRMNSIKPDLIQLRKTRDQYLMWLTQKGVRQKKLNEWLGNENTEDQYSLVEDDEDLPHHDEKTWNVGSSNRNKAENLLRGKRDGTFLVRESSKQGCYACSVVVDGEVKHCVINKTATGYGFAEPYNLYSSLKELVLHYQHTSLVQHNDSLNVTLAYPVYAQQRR
- ASSAY COMMENT: PI3Kα (p110/p85) kinase ADP-Glo Assay
- PARTICULARS: 25 uM ATP
ASSAY ENDPOINT: pIC50
Scale: pIC50 equals -log10([C]), with [C] in mol/L.

Examples from the recorded data:
> print(dat)
                                   molecule                               measured.on  assay.endpoint  recorded.measurement
1  Cc1cc(C(C)Nc2ccccc2C(=O)O)c2cc(-c3ccccc3)[nH]c(=O)c2c1 (stereo not shown)  PI3Kα (p110/p85) kinase (wild type, "WT") (Homo sapiens, UniProt P42336)           pIC50                  5.20
2  Cc1cc(C(C)Nc2ccccc2C(=O)O)c2cc(C3=Cc4ccccc4CC3)n(C)c(=O)c2c1 (stereo not shown)  PI3Kα (p110/p85) kinase (wild type, "WT") (Homo sapiens, UniProt P42336)           pIC50                  5.14

// pIC50 value for Cc1cc(C(C)Nc2ccccc2C(=O)O)c2cc(-c3ccc(N4CCCC4)cc3)n(C)c(=O)c2c1 (stereo not shown) : 4.83

The reported pIC50 of the molecule Cc1cc([C@@H](C)Nc2ccccc2C(=O)O)c2cc(-c3ccc(F)cc3)n(C)c(=O)c2c1 was 5.38

Reported pIC50 ( Cc1cc(C(C)Nc2ccccc2C(=O)O)c2cc(C#Cc3ccn(C)n3)n(C)c(=O)c2c1 (stereo not shown) ) = 5.76

The molecule listed as Cc1cc(C(C)Nc2ccccc2S(C)(=O)=O)c2cc(-c3ccccc3)n(C)c(=O)c2c1 (stereo not shown) shows pIC50 equal to 5.48

CC(Nc1ccccc1C(=O)O)c1cccn2c(=O)cc(-c3ccccc3)cc12 (stereo not shown) has a reported pIC50 of 4.62

Sample Cc1cc(C(C)Nc2ccccc2C(=O)O)c2cc(-c3cnn(CC45CC6C[C@H](C4)C[C@H](C6)C5)c3C)n(C)c(=O)c2c1 (stereo partly shown) ; pIC50 observed: 4.45

The measured pIC50 associated with COc1ncc(-c2cc3c(C(C)Nc4ccccc4C(=O)O)cc(C)cc3c(=O)n2C)cc1F (stereo not shown) reads 5.00

Sure, the documented pIC50 for Cc1cc(C(C)Nc2cc3ccsc3cc2C(=O)O)c2cc(-c3ccccc3)n(C)c(=O)c2c1 (stereo not shown) is 4.84

* * *

Items are presented alongside their recorded selectivity: WT/H1047R.
- MEASURED ON: PI3Kα (p110[H1047R]/p85) kinase (Homo sapiens, UniProt P42336, H1047R)
- ASSAY COMMENT: PI3Kα (p110[H1047R]/p85) kinase ADP-Glo Assay
- Assay type: biochemical
- PARTICULARS: ADP-Glo Assay IC50 ratio, 25 uM ATP
- Experimental: PI3Kα (p110[H1047R]/p85) kinase ADP-Glo Assay. Certain compounds disclosed herein were tested for inhibition of PI3Kα (p110[H1047R]/p85) kinase in assays based on the ADP-Glo™ Kinase Assay methodology. The assays were carried out in 384-well white plates in a reaction mixture containing PI3Kα (p110[H1047R]/p85) kinase, 25 µM ATP, 5.35 µg/ml PI(4,5)P2:PS Lipid Kinase Substrate and […] compound in buffer containing 50 mM HEPES pH7.5, 50 mM NaCl, 3 mM MgCl2, 0.0025% BSA and 2 mM DTT. […]

Record excerpt, results attached:
> print(dat)
                                   molecule  recorded.measurement
1  Cc1cc(C(C)Nc2ccccc2C(=O)O)c2cc(-c3ccc4c(c3)CN(C)C4=O)n(C)c(=O)c2c1 (stereo not shown)                  24.2
2  Cc1cc(C(C)Nc2ccccc2C(=O)O)c2cc(-c3ccc4c(c3)C3CC3O4)n(C)c(=O)c2c1 (stereo not shown)                  18.5
3  Cc1cc(C(C)Nc2ccccc2C(=O)O)c2cc(-c3cc(F)cc(F)c3)n(C)c(=O)c2c1 (stereo not shown)                  36.1

Next item in the queue.
The recorded selectivity: WT/H1047R for Cc1cc([C@@H](C)Nc2ccccc2C(=O)O)c2cc(-c3ccccc3)n(C)c(=O)c2c1 is 24.1

Measured values drawn from patent US20260125346A1 for this set.
